- Assay Explanation: Pharmacokinetics of LW105-1-1 in mice
- Type: in vivo
- Experimental Context: mouse, plasma; male C57BL/6 mice, oral gavage 100 mg/kg, after dose standardization; read-out: F% (absolute bioavailability)
Recorded Metric: bioavailability
Give the number first and the unit second.

Lookup result for CS(=N)(=O)NCCNc1nonc1C(=NO)Nc1ccc(F)c(Br)c1 (racemic) ; measured bioavailability: 81.4%

* * *

- Assay Explanation: Pharmacokinetics of LW105-1-1 in mice
- Format: in vivo
- Experimental Context: mouse, plasma; male C57BL/6 mice, intravenous 3 mg/kg
Recorded Metric: C0
Report field: quantity (unit follows the number).

// field: C0; key: CS(=N)(=O)NCCNc1nonc1C(=NO)Nc1ccc(F)c(Br)c1 (racemic) [LW105-1-1] ; value = 2560 ng/mL

* * *

- Assay Explanation: Pharmacokinetics of LW105-1-1 in mice
- Assay type: in vivo
- Experimental Context: mouse, plasma; male C57BL/6 mice, oral gavage 100 mg/kg
Recorded Metric: AUC(0-inf) (ng·h/mL)
Write the answer as a number in ng·h/mL, unit excluded.

AUC(0-inf) recorded for this molecule, CS(=N)(=O)NCCNc1nonc1C(=NO)Nc1ccc(F)c(Br)c1 (racemic) , is 39300

* * *

- Assay Explanation: Pharmacokinetics of LW105-1-1 in mice
- Type: in vivo
- Experimental Context: mouse, plasma; male C57BL/6 mice, oral gavage 100 mg/kg
Recorded Metric: Tmax (min)
Field format: number, assumed min, no unit text.

The reported value for CS(=N)(=O)NCCNc1nonc1C(=NO)Nc1ccc(F)c(Br)c1 (racemic) in terms of Tmax is 15

* * *

- Assay Explanation: Pharmacokinetics of LW105-1-1 in mice
- Assay type: in vivo
- Experimental Context: mouse, plasma; male C57BL/6 mice, oral gavage 30 mg/kg; read-out: MRT0-last
Recorded Metric: MRT last (h)
Reply with just the number (in h).

Item: CS(=N)(=O)NCCNc1nonc1C(=NO)Nc1ccc(F)c(Br)c1 (racemic) | MRT last: 3.11
